// EC50 lookup, one value per entry
- assayed target: T1, human CLDN6 (UniProt P56747 1-220)
- T1 chain: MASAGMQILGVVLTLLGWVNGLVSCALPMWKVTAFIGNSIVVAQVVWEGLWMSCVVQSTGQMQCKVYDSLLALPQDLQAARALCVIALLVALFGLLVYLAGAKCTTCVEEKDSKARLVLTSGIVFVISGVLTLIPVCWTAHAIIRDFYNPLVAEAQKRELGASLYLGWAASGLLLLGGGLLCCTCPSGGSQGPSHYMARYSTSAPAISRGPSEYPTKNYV
- assay notes: HEK293E cell binding; avid
Your answer is read as µg/mL, so omit the unit and give the number.

Consider the worked cases shown below.
stdin: Could you tell me which EC50 is on file for XENP35044 H2_L1.1 (antibody, V domains shown) VH: EVQLVQSGAEVKKPGESLRISCKTSGYTFTEYTMHWVRQMPGKSLEWMGGIDPNNGNTHYNQKFQGHVTISVDKSISTAYLQWSSLKASDTAMYYCARIYYFGRLYFDFWGAGTLVTVSS VL: DIQMTQSPSSLSASVGDRVTITCQASQDIYNRLAWYQQKPGKVPKLLISGATSLETGVPSRFSGSGSGKDYTFTISSLQPEDIATYYCQQYWSSPLTFGGGTKVEIKR ?
stdout: 4.34

stdin: So what's the measured EC50 for this one? XENP35090 H1.6_L1 (antibody, V domains shown) VH: QVQLVQSGAEVKKPGASVKVSCKTSGYTFTEYTMHWVRQAPGQSLEWMGGIDPNSGNTHYNQKFQGRVTITVDKSASTAYMELSSLRSEDTAVYYCARIYYFGRLYFDFWGAGTLVTVSS VL: DIQMTQSPSSLSASVGDRVTITCQASEDIYNRLAWYQQKPGKVPKLLISGATSLETGVPSRFSGSGSGKDYTFTISSLQPEDIATYYCQQYWSSPLTFGGGTKVEIKR
stdout: 1.56

Next up:
stdin: Using the record for XENP35091 H1.7_L1 (antibody, V domains shown) VH: QVQLVQSGAEVKKPGASVKVSCKTSGYTFTEYTMHWVRQAPGQSLEWMGGIDPNQGNTHYNQKFQGRVTITVDKSASTAYMELSSLRSEDTAVYYCARIYYFGRLYFDFWGAGTLVTVSS VL: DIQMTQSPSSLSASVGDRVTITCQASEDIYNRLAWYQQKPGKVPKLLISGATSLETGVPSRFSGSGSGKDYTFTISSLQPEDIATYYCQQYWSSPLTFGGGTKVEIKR , report its EC50.
stdout: 1.43
